biological target: T1, human PD-1 dimer (human PD-1-mFc or human PD-1-hFc) (human, UniProt Q15116 25-170); test: SPR, mAb captured, 37C;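 note: Real-time Biacore biosensor, PD-1 dimer flowed over anti-PD-1 antibody surface, rate constants fitted to a 1:1 model, KD derived as kd/ka and t½ as ln2/(60·kd)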
T1 construct: also called hPD-1-mFc; hPD1-hFc
T1 sequence (Q15116 25-170 C93S): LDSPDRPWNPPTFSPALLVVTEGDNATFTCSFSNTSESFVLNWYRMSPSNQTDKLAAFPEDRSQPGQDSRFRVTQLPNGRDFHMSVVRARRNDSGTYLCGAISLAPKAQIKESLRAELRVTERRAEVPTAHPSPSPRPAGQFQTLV
PROPERTY_LABEL: koff

INPUT: Output koff of H1M7800N (antibody, mouse IgG1, V domains shown, Human variable regions, mouse IgG1 Fc) VH: EVQLVESGGGLVQPGGSLRLSCAASGFTVSNNYMSWVRQAPGKGLEWVSVIYSGGFTYYTDSVKGRFTISRHNSKNTLYLQMNSLRAEDTAVYYCARYYYDTSDYWTFFDYWGQGTLVTVSS VL: EIVMTQSPATLSVSPGERATLSCRASQSVSSNLAWYQQKPGQAPRLLIYGASTRATGIPARFSGSGSGTEFTLTISSLQSGDFAVYYCQQYNNWPLTFGGGTKVEIN
OUTPUT: 0.000181 s⁻¹

INPUT: Output koff of H1M7789N (antibody, mouse IgG1, V domains shown, Human variable regions, mouse IgG1 Fc) VH: EVQLLESGGGLVQPGGSLRLSCSASGFTFSSYTMNWVRQAPGKGLEWVSGISDTGGNTYYTDSVKGRFTVSRDNSKNTLSLQMNSLRAEDTAVYYCAKDQGGSYPYYFHYWGQGSLVTVSS VL: DIQMTQSPSSLSASVGDRVTITCRASQSISSYLIWYQQKPGTAPKFLIYAASSLQSGVPSRFSGCGSGTDFTLTISSLQPEDFATYYCQQSYSTPPITFGQGTRLEIK
OUTPUT: ≤ 1e-05 s⁻¹

INPUT: Answer with the recorded koff of H1M7799N (antibody, mouse IgG1, V domains shown, Human variable regions, mouse IgG1 Fc) VH: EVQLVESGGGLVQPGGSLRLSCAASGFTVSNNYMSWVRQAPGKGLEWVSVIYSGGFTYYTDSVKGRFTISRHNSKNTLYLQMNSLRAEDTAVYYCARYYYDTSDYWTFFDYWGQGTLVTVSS VL: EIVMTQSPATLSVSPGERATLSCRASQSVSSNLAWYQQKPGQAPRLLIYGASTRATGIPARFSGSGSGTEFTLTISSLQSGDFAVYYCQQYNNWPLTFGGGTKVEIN only.
OUTPUT: 0.000181 s⁻¹

INPUT: State, in one line, measured koff of H2aM7798N (antibody, mouse IgG2a, V domains shown, Human variable regions, mouse IgG2a Fc; also called H2M7798N) VH: EVQLLESGGVLVQPGGSLRLSCAASGFTFSNFGMTWVRQAPGKGLEWVSGISGGGRDTYFADSVKGRFTISRDNSKNTLYLQMNSLKGEDTAVYYCVKWGNIYFDYWGQGTLVTVSS VL: DIQMTQSPSSLSASVGDSITITCRASLSINTFLNWYQQKPGKAPNLLIYAASSLHGGVPSRFSGSGSGTDFTLTIRTLQPEDFATYYCQQSSNTPFTFGPGTVVDFR
OUTPUT: 1.4e-05 s⁻¹

INPUT: Supply recorded koff for H2aM7780N (antibody, mouse IgG2a, V domains shown, Human variable regions, mouse IgG2a Fc (H2aM prefix); also called H2M7780N) VH: QVQLVESGGGVVQSGRSLRLSCAASGFTFSSYGMHWVRQAPGKGLEWVAVIWYDGSNIYYSDSVKGRFTISRANSKNTLYLQMNSLRAEDTAVYYCARPGHWNYFFEYWGQGTLVTVSS VL: DIQMTQSPSSLSASVGDRVTITCRASQSINNYLNWYQQKPGKAPKLLIYTASSLQSGVPSRFSGSGSGTDFTLTISSLQPEDFATYYCQQSYSTPPLTFGQGTQLEIK here.
OUTPUT: 2.29e-05 s⁻¹
